Molecular target: T1, tyrosinase (Bacillus megaterium (printed …, UniProt B2ZB02 1-297))
T1 sequence: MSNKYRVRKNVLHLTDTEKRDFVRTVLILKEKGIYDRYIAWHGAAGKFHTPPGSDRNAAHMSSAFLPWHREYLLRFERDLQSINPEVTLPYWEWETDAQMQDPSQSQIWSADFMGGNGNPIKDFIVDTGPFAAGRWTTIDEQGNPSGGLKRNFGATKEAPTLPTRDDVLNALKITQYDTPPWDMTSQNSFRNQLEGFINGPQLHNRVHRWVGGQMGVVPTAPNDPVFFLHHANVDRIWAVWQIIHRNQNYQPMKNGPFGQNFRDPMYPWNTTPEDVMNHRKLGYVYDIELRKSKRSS
Assay: porous silicon RIFTS (EOT) biosensor; apparent, mass-transfer limited; Hill fit R2 0.9731; Selection buffers listed (assay buffer and temperature not stated in material): AGR2 137 mM NaCl, 20 mM KCl, 10 mM Na2HPO4, 2 mM KH2PO4 pH 7.4; 6H7 50 mM K2HPO4

- binder: "GCTATGGGTGGTCTGGTTGGGATTGGCCCCGGGAGCTGGC (ssDNA, 5'-amino) [anti-his tag aptamer 6H7]"
  Kd [µM]: 31
